# System: HIV-1 IIIB
# test_description: HOS HIV-1 infectivity assay
# Format: cell-based
# measurement_setup: Human immunodeficiency virus 1, IIIB; as determined by the infectivity assay; strain not stated in Table 2; read-out: Activity Level
pIC50: −log10 of the molar value.
outcome_measure: pIC50

Entry CC(C)CCNCC(C)(C)Cn1c(CN(C)C2CCCc3cccnc32)nc2ccccc21 (stereo not shown) [Example 69] needs its pIC50 filled in; supply it.
6.30 to 7.00

Entry CN1CCCC(Cn2c(CN(C)C3CCCc4cccnc43)nc3ccccc32)C1 (stereo not shown) [Example 7] needs its pIC50 filled in; supply it.
> 7.00

Entry CN(Cc1nc2ccccc2n1C[C@@H]1CCCN(C(=N)N)C1)[C@H]1CCCc2cccnc21 [Example 87] needs its pIC50 filled in; supply it.
> 7.00

New cases:
Entry CCCN(Cc1nc2ccccc2n1C[C@H]1CCCN(C(C)C)C1)[C@H]1CCCc2cccnc21 [Example 97] needs its pIC50 filled in; supply it.
> 7.00

* * *

Assign IC50 to each entry below.
# Tested on: HIV-1 IIIB
# test_description: HOS HIV-1 infectivity assay
# Type: cell-based
# measurement_setup: Human immunodeficiency virus 1, IIIB; as determined by the infectivity assay; strain not stated in Table 2; read-out: Activity Level

Entry CN(Cc1nc2ccccc2n1C[C@H]1CCCNC1)[C@H]1CCCc2cccnc21 [Example 39h] needs its IC50 filled in; supply it.
< 100 nM

Entry CN(Cc1nc2ccccc2n1Cc1ccncc1)C1CCCc2cccnc21 (centres unmarked) [Example 27] needs its IC50 filled in; supply it.
100 to 500 nM

Entry CN1CCC[C@H](Cn2c(CN(CCO)[C@H]3CCCc4cccnc43)nc3ccccc32)C1 [Example 95] needs its IC50 filled in; supply it.
< 100 nM

Would you mind listing IC50 for each of the following molecules?
1. CN(Cc1nc2ccccc2n1CC1CCNCC1)C1CCCc2cccnc21 (centres unmarked) [Example 6]
2. CN(Cc1nc2ccccc2n1C[C@H]1CCCN(Cc2nccs2)C1)[C@H]1CCCc2cccnc21 [Example 103]
3. CN(Cc1nc2ccccc2n1C[C@H]1CCCN(Cc2ncc[nH]2)C1)[C@H]1CCCc2cccnc21 [Example 45]
4. CC(C)CCN(CCCn1c(CN(C)C2CCCc3cccnc32)nc2ccccc21)CCC(C)C (centres unmarked) [Example 65]

1. < 100 nM
2. 100 to 500 nM
3. < 100 nM
4. 500 to 10000 nM

Entry CC(C)CN(Cc1nc2ccccc2n1C[C@H]1CCCN(C)C1)[C@H]1CCCc2cccnc21 [Example 94] needs its IC50 filled in; supply it.
100 to 500 nM

* * *

# System: HIV-1 IIIB
# test_description: HOS HIV-1 infectivity assay
# Type: cell-based
# measurement_setup: Human immunodeficiency virus 1, IIIB; as determined by the infectivity assay; strain not stated in Table 2; read-out: Activity Level
pIC50: −log10 of the molar value.
outcome_measure: pIC50

Would you mind listing pIC50 for each of the following compounds?
1. CN1CCC[C@@H](Cn2c(CN(C)[C@H]3CCCc4cccnc43)nc3ccccc32)C1 [Example 75f]
2. CN1CCC[C@@H](Cn2c(CN(C)[C@@H]3CCCc4cccnc43)nc3ccccc32)C1 [Example 77]
3. CN(Cc1nc2ccccc2n1CCCNS(=O)(=O)c1ccccc1)C1CCCc2cccnc21 (centres unmarked) [Example 62]
4. CC(C)N1CCC[C@@H](Cn2c(CN(C)[C@@H]3CCCc4cccnc43)nc3ccccc32)C1 [Example 79]
5. CN(Cc1nc2ccccc2n1CCCN)[C@H]1CCCc2cccnc21 [Example 110]
6. CN(C)CC(C)(C)CN1CCC[C@H](Cn2c(CN(C)[C@H]3CCCc4cccnc43)nc3ccccc32)C1 [Example 101]
7. CN(Cc1nc2ccccc2n1C[C@H]1CCCN(Cc2cccn2C)C1)[C@H]1CCCc2cccnc21 [Example 104]
8. CC(C)N1CCC[C@@H](Cn2c(CN(C)[C@H]3CCCc4cccnc43)nc3ccccc32)C1 [Example 81]

> 7.00
6.30 to 7.00
6.30 to 7.00
> 7.00
> 7.00
> 7.00
> 7.00
> 7.00

Would you mind listing pIC50 for each of the following compounds?
1. CN(Cc1nc2ccccc2n1Cc1ccc(CN)cc1)C1CCCc2cccnc21 (centres unmarked) [Example 14]
2. CN(Cc1nc2ccccc2n1CCC1CCCCN1)C1CCCc2cccnc21 (centres unmarked) [Example 23d]
3. CN(Cc1nc2ccccc2n1C[C@H]1CCCN(C(=N)N)C1)[C@@H]1CCCc2cccnc21 [Example 88]
4. CN1CCC(Cn2c(CN(C)C3CCCc4cccnc43)nc3ccccc32)C1 (centres unmarked) [Example 8d]
5. CN(Cc1nc2ccccc2n1Cc1ccc(CNCc2ccccn2)cc1)C1CCCc2cccnc21 (centres unmarked) [Example 12]

1. 5.00 to 6.30
2. > 7.00
3. 6.30 to 7.00
4. > 7.00
5. 6.30 to 7.00

Would you mind listing pIC50 for each of the following compounds?
1. CN(Cc1nc2ccccc2n1CCCCNS(C)(=O)=O)C1CCCc2cccnc21 (centres unmarked) [Example 51]
2. CN(Cc1nc2ccccc2n1CCn1ccnc1)C1CCCc2cccnc21 (centres unmarked) [Example 70]

6.30 to 7.00
6.30 to 7.00

Would you mind listing pIC50 for each of the following compounds?
1. CN(Cc1nc2ccccc2n1C[C@H]1CCCN(Cc2ccccc2)C1)[C@H]1CCCc2cccnc21 [Example 43]
2. CN(Cc1nc2ccccc2n1C[C@H]1CCCN(/C(N)=N/C#N)C1)[C@H]1CCCc2cccnc21 [Example 91]

["> 7.00", "> 7.00"]

* * *

# Test system: HIV-1 IIIB
# test_description: HOS HIV-1 infectivity assay
# Format: cell-based
# measurement_setup: Human immunodeficiency virus 1, IIIB; as determined by the infectivity assay; strain not stated in Table 2; read-out: Activity Level
outcome_measure: IC50

Example entries begin here.
Entry CN(Cc1nc2ccccc2n1C[C@H]1CCCN(Cc2ccncc2)C1)[C@H]1CCCc2cccnc21 needs its IC50 filled in; supply it.
< 0.1 µM

Entry CN(C)CCN1CCC[C@H](Cn2c(CN(C)[C@H]3CCCc4cccnc43)nc3ccccc32)C1 needs its IC50 filled in; supply it.
< 0.1 µM

Entry NCCCn1c(CN(Cc2ccccc2)C2CCCc3cccnc32)nc2ccccc21 (stereo not shown) needs its IC50 filled in; supply it.
0.5 to 10 µM

Entry CC(C)CCN1CCC[C@H](Cn2c(CN(C)[C@H]3CCCc4cccnc43)nc3ccccc32)C1 needs its IC50 filled in; supply it.
< 0.1 µM

Entry CN(Cc1nc2ccccc2n1CC(=O)NCc1ccncc1)C1CCCc2cccnc21 (stereo not shown) needs its IC50 filled in; supply it.
0.1 to 0.5 µM

Would you mind listing IC50 for each of the following compounds?
1. CC(C)N1CCC[C@H](Cn2c(CN(C)[C@H]3CCCc4cccnc43)nc3ccccc32)C1
2. CN(Cc1nc2ccccc2n1CC(=O)NCc1cccnc1)C1CCCc2cccnc21 (stereo not shown)
3. CN(C)CCCn1c(CN(C)C2CCCc3cccnc32)nc2ccccc21 (stereo not shown) [Example 15c]
4. CN(Cc1nc2ccccc2n1[C@H]1CC[C@H](N(C)C)CC1)C1CCCc2cccnc21 (stereo partly shown)
5. CC(C)N1CCC[C@H](Cn2c(CN(C)[C@@H]3CCCc4cccnc43)nc3ccccc32)C1
6. CC(C)CCN1CCC[C@@H](Cn2c(CN(C)[C@@H]3CCCc4cccnc43)nc3ccccc32)C1
7. CN(Cc1nc2ccccc2n1C[C@@H]1CCCN(C(=N)N)C1)[C@@H]1CCCc2cccnc21
8. CN(Cc1nc2ccccc2n1CC(C)(C)CNC(=N)N)C1CCCc2cccnc21 (stereo not shown)

["< 0.1 µM", "< 0.1 µM", "< 0.1 µM", "0.1 to 0.5 µM", "< 0.1 µM", "0.1 to 0.5 µM", "0.1 to 0.5 µM", "< 0.1 µM"]

* * *

# target_or_system: CXCR4 receptor (Homo sapiens)
# Construct: expressed in transfected cells; host or cells: HEK-293 cells (stably expressing human macrophage scavenger receptor) transduced with human CXCR4 BacMam and Gqi5 BacMam
# Sequence (P61073 whole entry): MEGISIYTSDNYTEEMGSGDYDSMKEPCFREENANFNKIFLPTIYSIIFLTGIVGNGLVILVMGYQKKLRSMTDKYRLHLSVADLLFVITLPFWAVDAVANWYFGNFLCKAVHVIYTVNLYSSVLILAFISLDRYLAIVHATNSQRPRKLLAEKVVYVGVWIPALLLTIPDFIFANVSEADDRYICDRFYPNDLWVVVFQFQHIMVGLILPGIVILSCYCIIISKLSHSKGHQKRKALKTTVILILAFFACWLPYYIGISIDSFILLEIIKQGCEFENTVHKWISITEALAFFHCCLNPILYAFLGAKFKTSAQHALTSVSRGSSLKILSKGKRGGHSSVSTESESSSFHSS
# test_description: Functional FLIPR assay (block of SDF-1 alpha induced [Ca2+]i change)
# Assay type: cell-based
# measurement_setup: HEK-293 cells, human CXCR4 BacMam and Gqi5 BacMam, read-out: Functional assay (pIC50) (converted)
Assign IC50 to each entry below.
Answers are plain numbers, in nM.

Example entries begin here.
Entry CN(Cc1nc2ccccc2n1CCCNCc1ccccn1)C1CCCc2cccnc21 (centres unmarked) [Example 16] needs its IC50 filled in; supply it.
58.9

Entry NCCCn1c(CNC2CCCc3cccnc32)nc2ccccc21 (centres unmarked) [Example 19] needs its IC50 filled in; supply it.
234

Entry CN(Cc1nc2ccccc2n1CCN1CCCCC1)C1CCCc2cccnc21 (centres unmarked) [Example 4] needs its IC50 filled in; supply it.
60.3

Entry CN1CCCC(Cn2c(CN(C)C3CCCc4cccnc43)nc3ccccc32)C1 (centres unmarked) [Example 7] needs its IC50 filled in; supply it.
8.13

Now consider the entry below.
Entry CN(C)CCCCCn1c(CN(C)C2CCCc3cccnc32)nc2ccccc21 (centres unmarked) [Example 17] needs its IC50 filled in; supply it.
204

Reference source: patent US20080096861A1
